target: rat GHS-R (GHS receptor) expressed on CHO-GHSR62 cells (rat) (UniProt O08725); test: cell-based or functional assay
Sequence (O08725 whole entry): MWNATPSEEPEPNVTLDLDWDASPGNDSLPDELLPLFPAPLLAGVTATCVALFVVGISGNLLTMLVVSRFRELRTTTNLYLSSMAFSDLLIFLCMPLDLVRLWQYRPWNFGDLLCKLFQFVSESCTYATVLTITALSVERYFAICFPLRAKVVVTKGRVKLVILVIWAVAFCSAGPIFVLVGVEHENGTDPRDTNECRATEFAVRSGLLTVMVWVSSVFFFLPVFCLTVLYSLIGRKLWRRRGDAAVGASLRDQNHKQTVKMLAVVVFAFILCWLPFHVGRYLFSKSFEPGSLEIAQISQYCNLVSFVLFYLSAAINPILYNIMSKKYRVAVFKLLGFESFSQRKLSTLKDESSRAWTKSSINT
Square brackets hold non-standard residues; d marks the D form. Ends that are not written are not given here. * marks the point of attachment. Octanoyl = CCCCCCCC(=O)*; Octyl = CCCCCCCC*
Please provide measured log10(Ca-releasing activity EC50) for the entries that follow.
Field: value | Transform: log10 | Quantity: Ca-releasing activity EC50 | Unit: µM

# log10(Ca-releasing activity EC50) of GGS(Octanoyl)FLSP-NH2 (N-terminus assumed; SMILES CCCCCCCC(=O)OC[C@H](NC(=O)CNC(=O)CN)C(=O)N[C@@H](Cc1ccccc1)C(=O)N[C@@H](CC(C)C)C(=O)N[C@@H](CO)C(=O)N1CCC[C@H]1C(N)=O) [[Gly^2]-Ghrelin (1-7)-amide] = -1.11

# log10(Ca-releasing activity EC50) of GSS(Octanoyl)[dF]K-NH2 (N-terminus assumed; SMILES CCCCCCCC(=O)OC[C@H](NC(=O)[C@H](CO)NC(=O)CN)C(=O)N[C@H](Cc1ccccc1)C(=O)N[C@@H](CCCCN)C(N)=O) [[^DPhe^4,Lys^5]-Ghrelin (1-5)-amide] = 0.23

# log10(Ca-releasing activity EC50) of GS(Octanoyl)FLSP-NH2 (N-terminus assumed; SMILES CCCCCCCC(=O)OC[C@H](NC(=O)CN)C(=O)N[C@@H](Cc1ccccc1)C(=O)N[C@@H](CC(C)C)C(=O)N[C@@H](CO)C(=O)N1CCC[C@H]1C(N)=O) [[N-Glycyl]-Ghrelin (3-7)-amide] = -0.42

# log10(Ca-releasing activity EC50) of GHS(Octanoyl)FLSP-NH2 (N-terminus assumed; SMILES CCCCCCCC(=O)OC[C@H](NC(=O)[C@H](Cc1c[nH]cn1)NC(=O)CN)C(=O)N[C@@H](Cc1ccccc1)C(=O)N[C@@H](CC(C)C)C(=O)N[C@@H](CO)C(=O)N1CCC[C@H]1C(N)=O) [[His^2]-Ghrelin (1-7)-amide] = -1.46

# log10(Ca-releasing activity EC50) of GSC(Octyl)[dF]LSP-NH2 (N-terminus assumed; SMILES CCCCCCCCSC[C@H](NC(=O)[C@H](CO)NC(=O)CN)C(=O)N[C@H](Cc1ccccc1)C(=O)N[C@@H](CC(C)C)C(=O)N[C@@H](CO)C(=O)N1CCC[C@H]1C(N)=O) [[Cys^3(Octyl),^DPhe^4]-Ghrelin (1-7)-amide] = 0.48

# log10(Ca-releasing activity EC50) of YGSS(Octanoyl)FLSPEHQKAQQRKESKKPPAKLQPR [[N-Tyr]-rGhrelin] = -0.92
